Just for reference, patent US7807678B2 is where these values come from.

- Target entity: UniProt P32245
- Assay comment: Competitive inhibition binding assay, 125I-NDP-α-MSH, MC4-R
- Set-up: expressed in transfected cells
- Reported conditions: 1 μM compound; inhibition of 125I-NDP-α-MSH binding; mean of triplicates; results less than 0% reported as 0%
Non-standard residues stand in square brackets, D forms with d. Residues, ends and D or L forms follow the SMILES beside them. *: point of attachment. Hyp = O=C(O)[C@@H]1C[C@@H](O)CN1; NH(CH2)3NH2 = NCCCN*; Bn = c1ccc(C*)cc1
Reported Inhibition at 1 μM MC4-R by item:
Output should be the measured figure followed by the unit it is expressed in.

>>> observed_result("C[C@H](N)C(=O)N[C@@H](Cc1cnc[nH]1)C(=O)N[C@H](Cc1ccccc1)C(=O)N1C[C@H](OCc2ccccc2)C[C@H]1C(=O)NCCCN [Example 135] (H-AH[dF][Hyp](Bn)-{NH(CH2)3NH2})")
"0%"

Look up and state reported Inhibition at 1 μM MC4-R for N[C@H](Cc1ccc(Cl)cc1Cl)C(=O)N1CCN(CCc2ccc3ccccc3c2)C(=O)[C@@H]1CCCCNC(=O)c1ccc(O)cc1
12%

Look up and state reported Inhibition at 1 μM MC4-R for NCCCC[C@H]1C(=O)N(CCc2ccc3ccccc3c2)CCN1C(=O)[C@H](N)Cc1ccc(Cl)cc1Cl
62%

Look up and state reported Inhibition at 1 μM MC4-R for N=C(N)NCCC[C@H]1C(=O)N(CCc2c[nH]c3ccccc23)CCN1C(=O)[C@@H](Cc1ccccc1Cl)NC(=O)[C@@H]1Cc2ccccc2CN1
99%

Look up and state reported Inhibition at 1 μM MC4-R for N=C(N)NCCC[C@H]1C(=O)N(CCc2ccc3ccccc3c2)CCN1C(=O)[C@H](N)Cc1ccccc1Cl
69%

Look up and state reported Inhibition at 1 μM MC4-R for Cc1ccc(CCN2CCN(C(=O)[C@H](N)Cc3ccc(Cl)cc3)[C@@H](CCCNC(=N)N)C2=O)cc1
49%

====

Reported Inhibition at 1 μM MC1-R by item:
- Target entity: MC1-R (B-16 mouse melanoma cells) (Mus musculus)
- Construct: B-16 mouse melanoma cells (containing MC1-R); endogenous in cells; host or cells: B-16 mouse melanoma cells
- Sequence (Q01727 whole entry): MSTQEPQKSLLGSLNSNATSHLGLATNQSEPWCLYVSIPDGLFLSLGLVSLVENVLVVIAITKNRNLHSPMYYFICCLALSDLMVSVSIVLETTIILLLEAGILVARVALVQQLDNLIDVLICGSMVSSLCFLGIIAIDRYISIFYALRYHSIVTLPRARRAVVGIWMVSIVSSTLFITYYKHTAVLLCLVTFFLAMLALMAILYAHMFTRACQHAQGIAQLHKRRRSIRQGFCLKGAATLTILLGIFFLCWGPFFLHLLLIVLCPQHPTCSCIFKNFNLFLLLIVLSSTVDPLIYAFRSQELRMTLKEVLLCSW
- Assay comment: Competitive inhibition binding assay, 125I-NDP-α-MSH, MC1-R
- Reported conditions: 1 μM compound; inhibition of 125I-NDP-α-MSH binding; mean of triplicates; results less than 0% reported as 0%

>>> observed_result("NCCCC[C@H]1C(=O)N2C(CC[C@@H]2COc2ccc3ccccc3c2)N1C(=O)[C@@H](Cc1ccccc1Cl)NC(=O)[C@@H]1C[C@H](Oc2ccccc2)CN1 (stereo partly drawn)")
"7%"
>>> observed_result("CC(O)C(N)C(=O)NC(Cc1ccccc1)C(=O)N1CC(OCc2ccccc2)CC1C(=O)NCCCN (stereo not drawn)")
"18%"

Look up and state reported Inhibition at 1 μM MC1-R for NCCCC[C@H]1C(=O)N2C(CC[C@@H]2COc2ccc3ccccc3c2)N1C(=O)[C@@H](Cc1ccccc1Cl)NC(=O)[C@@H]1Cc2ccccc2N1 (stereo partly drawn)
34%

====

- Target entity: MC4-R (Homo sapiens)
- Sequence (P32245 whole entry): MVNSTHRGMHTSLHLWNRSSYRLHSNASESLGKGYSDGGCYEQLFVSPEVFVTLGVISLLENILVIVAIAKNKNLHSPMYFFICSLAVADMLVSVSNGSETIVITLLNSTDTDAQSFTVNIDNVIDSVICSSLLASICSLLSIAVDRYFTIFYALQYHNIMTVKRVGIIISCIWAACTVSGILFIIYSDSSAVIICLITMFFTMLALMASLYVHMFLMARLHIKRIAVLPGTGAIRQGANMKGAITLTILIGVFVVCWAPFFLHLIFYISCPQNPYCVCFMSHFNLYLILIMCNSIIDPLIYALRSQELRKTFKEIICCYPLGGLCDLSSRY
- Assay comment: Competitive inhibition binding assay, 125I-NDP-α-MSH, MC4-R
- Set-up: expressed in transfected cells
- Reported conditions: 1 μM compound; inhibition of 125I-NDP-α-MSH binding; mean of triplicates; results less than 0% reported as 0%
Attribute measured: Inhibition at 1 μM MC4-R (%)
Provide only the numeric value, understood in %.

Examples from the recorded data:
>>> observed_result("NCCCCC1C(=O)N2C(COc3ccccc3)CCC2N1C(=O)C(N)Cc1ccccc1Cl (stereo not shown)")
0
>>> observed_result("NCCCNC(=O)[C@@H]1C[C@@H](OCc2ccccc2)CN1C(=O)[C@@H](Cc1ccccc1)NC(=O)[C@@H](N)Cc1ccc(-c2ccccc2)cc1")
9
>>> observed_result("N[C@H](Cc1ccc(Cl)cc1Cl)C(=O)N1CCN(CCc2ccc3ccccc3c2)C(=O)[C@@H]1CCCn1cncn1")
0

Next:
Look up and state reported Inhibition at 1 μM MC4-R for NCCCC[C@H]1C(=O)N(CCc2ccc3ccccc3c2)CCN1C(=O)[C@@H](Cc1ccc(Cl)cc1Cl)NC(=O)[C@H]1CC[C@@H](c2ccccc2)N1
71
